# target.system: T1, monkey CD22 protein (ACROBiosystems, catalog number SI2-R52Ha) (monkey, UniProt F6W485 20-688)
# T1 construct: commercial protein; also called monkey CD22-ECD; monkey CD22-ECD-His
# T1 sequence: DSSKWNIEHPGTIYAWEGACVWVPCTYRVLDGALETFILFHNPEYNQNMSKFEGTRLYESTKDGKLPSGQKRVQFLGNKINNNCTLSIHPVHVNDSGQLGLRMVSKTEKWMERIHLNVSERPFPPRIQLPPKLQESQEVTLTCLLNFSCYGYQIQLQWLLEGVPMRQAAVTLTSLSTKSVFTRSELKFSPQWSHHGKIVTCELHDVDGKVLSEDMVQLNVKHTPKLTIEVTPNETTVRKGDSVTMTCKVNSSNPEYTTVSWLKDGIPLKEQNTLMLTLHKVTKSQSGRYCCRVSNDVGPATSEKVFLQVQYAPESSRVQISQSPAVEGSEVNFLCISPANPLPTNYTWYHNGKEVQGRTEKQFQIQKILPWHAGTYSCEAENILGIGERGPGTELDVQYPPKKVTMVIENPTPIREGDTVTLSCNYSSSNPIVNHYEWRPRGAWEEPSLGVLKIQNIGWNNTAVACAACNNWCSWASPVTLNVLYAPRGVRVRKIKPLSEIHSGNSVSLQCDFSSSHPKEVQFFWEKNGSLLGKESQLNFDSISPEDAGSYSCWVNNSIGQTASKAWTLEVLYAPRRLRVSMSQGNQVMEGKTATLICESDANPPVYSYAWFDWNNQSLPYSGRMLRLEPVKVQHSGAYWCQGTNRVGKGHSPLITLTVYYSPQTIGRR
# test.description: ELISA, coated monkey CD22 protein, antibody 0.00001 nM

binder: F1.192.1 (antibody, human IgG1, kappa, V domains shown, human-murine chimeric IgG1 kappa) VH: AVQLQQSGVELVRPGASVKLSCTGSDFNIKEDYIHWVKQRPEQGLEWIGWIDPENGDTEYASKFQGKATITADTSSNTAYLQLSSLTSEDTAVYYCATYGSLDYWGQGTTLTVSS VL: DIKMTQSPSSMYAFLGERVTITCKASQGINSFLTWFQQKPGKSPKTLIYRANRLVDGVPSRFSGSGSGQDYSLTISSLEYEDVGIYYCLQYDEFPRTFGGGTKLEIKR
OD450: 0.07 OD450
